# Assay procedure: Pharmacokinetic evaluation in humans
# Assay type: in vivo
# Test context: human, plasma, 60 mg, noncompartmental, read-out: AUC0-t, Minimum, maximum
Readout kind: AUC(0-t)

Form field AUC(0-t), entry C[C@H](NC(=O)[C@H](CCC(=O)O)NC(=O)CCCC[C@@H]1CCSS1)C(=O)O [RLip-EA-OH, N-(R)-lipoyl-L-glutamyl-L- alanine] : 1720 to 3110 ng·h/mL

###

# Assay procedure: Pharmacokinetic evaluation in humans
# Format: in vivo
# Test context: human, plasma, 300 mg, noncompartmental, read-out: t1/2, Median (converted)
Readout kind: half-life (h)
Write it as a number; the unit h goes unstated.

Form field half-life, entry C[C@H](NC(=O)[C@H](CCC(=O)O)NC(=O)CCCC[C@@H]1CCSS1)C(=O)O [RLip-EA-OH, N-(R)-lipoyl-L-glutamyl-L- alanine] : 1.14

###

# Assay procedure: Pharmacokinetic evaluation in rats
# Assay type: in vivo
# Test context: both sexes, plasma; rat; 30 mg/kg IV infusion
Readout kind: AUC(0-inf)

Looking up C[C@H](NC(=O)[C@H](CCC(=O)O)NC(=O)CCCC[C@@H]1CCSS1)C(=O)O [RLip-EA-OH, N-(R)-lipoyl-L-glutamyl-L- alanine] , I found its AUC(0-inf) recorded as ~7000 ng·h/mL

###

# Assay procedure: Pharmacokinetic evaluation in humans
# Assay type: in vivo
# Test context: human, plasma, 300 mg, noncompartmental, read-out: AUC0-t, Mean (SD)
Readout kind: AUC(0-t) (ng·h/mL)
Output spec: scalar in ng·h/mL, unitless text.

Record C[C@H](NC(=O)[C@H](CCC(=O)O)NC(=O)CCCC[C@@H]1CCSS1)C(=O)O [RLip-EA-OH, N-(R)-lipoyl-L-glutamyl-L- alanine] . Reported AUC(0-t): 16500

###

# Assay procedure: Pharmacokinetic evaluation in humans
# Format: in vivo
# Test context: human, plasma, 60 mg, compartmental, read-out: AUCinf, Minimum, maximum
# Procedure: Plasma and urine RLip-EA-OH concentrations were measured at BASi, Inc. (West Lafayette, Ind.) using a LC/MS/MS method with positive turbo ion spray, in the multiple reaction-monitoring mode. The quantifiable range for human plasma was 1.00 to 500 ng/mL and QC samples were included at 3.00, 75.0 and 375 ng/mL. The PK population included subjects who received RLip-EA-OH and had ≧1 post-dose PK measurement. […]
Readout kind: AUC(0-inf)

Recorded AUC(0-inf) (compound C[C@H](NC(=O)[C@H](CCC(=O)O)NC(=O)CCCC[C@@H]1CCSS1)C(=O)O [RLip-EA-OH, N-(R)-lipoyl-L-glutamyl-L- alanine] ): 1770 to 3160 ng·h/mL

###

# Assay procedure: Pharmacokinetic evaluation in humans
# Type: in vivo
# Test context: human, plasma and urine, 60 mg, noncompartmental, read-out: Renal clearance, Median (converted)
Readout kind: CL renal (mL/min)
Output spec: scalar in mL/min, unitless text.

C[C@H](NC(=O)[C@H](CCC(=O)O)NC(=O)CCCC[C@@H]1CCSS1)C(=O)O [RLip-EA-OH, N-(R)-lipoyl-L-glutamyl-L- alanine] yielded CL renal of 188

###

# Assay procedure: Pharmacokinetic evaluation in humans
# Assay type: in vivo
# Test context: human, plasma and urine, 20 mg, noncompartmental, read-out: Renal clearance, Mean (SD) (converted)
Readout kind: CL renal (mL/min)
Just the number please, in mL/min, no unit attached.

Recorded CL renal (compound C[C@H](NC(=O)[C@H](CCC(=O)O)NC(=O)CCCC[C@@H]1CCSS1)C(=O)O [RLip-EA-OH, N-(R)-lipoyl-L-glutamyl-L- alanine] ): 168
